METHOD_SUMMARY: Pharmacokinetic parameters in dog, and clearance value reported after oral administration of 50 mg/Kg.
Type: ADME, organism-based, Canis lupus familiaris
PROTOCOL_CONDITIONS: in vivo
EXPERIMENTAL_READOUT: CL/F (mL/min/kg)
State just the number; it will be interpreted in mL/min/kg.

Reported CL/F for COc1cc2c(Nc3ccc(Br)cc3F)ncnc2cc1OCCn1ccnn1 [ZD-4190 FREE BASE] was 8.33

---

Let's go through some pIC50 measurements on Vascular endothelial growth factor receptor 2 (Homo sapiens, UniProt P35968) together.
Sequence (P35968 whole entry): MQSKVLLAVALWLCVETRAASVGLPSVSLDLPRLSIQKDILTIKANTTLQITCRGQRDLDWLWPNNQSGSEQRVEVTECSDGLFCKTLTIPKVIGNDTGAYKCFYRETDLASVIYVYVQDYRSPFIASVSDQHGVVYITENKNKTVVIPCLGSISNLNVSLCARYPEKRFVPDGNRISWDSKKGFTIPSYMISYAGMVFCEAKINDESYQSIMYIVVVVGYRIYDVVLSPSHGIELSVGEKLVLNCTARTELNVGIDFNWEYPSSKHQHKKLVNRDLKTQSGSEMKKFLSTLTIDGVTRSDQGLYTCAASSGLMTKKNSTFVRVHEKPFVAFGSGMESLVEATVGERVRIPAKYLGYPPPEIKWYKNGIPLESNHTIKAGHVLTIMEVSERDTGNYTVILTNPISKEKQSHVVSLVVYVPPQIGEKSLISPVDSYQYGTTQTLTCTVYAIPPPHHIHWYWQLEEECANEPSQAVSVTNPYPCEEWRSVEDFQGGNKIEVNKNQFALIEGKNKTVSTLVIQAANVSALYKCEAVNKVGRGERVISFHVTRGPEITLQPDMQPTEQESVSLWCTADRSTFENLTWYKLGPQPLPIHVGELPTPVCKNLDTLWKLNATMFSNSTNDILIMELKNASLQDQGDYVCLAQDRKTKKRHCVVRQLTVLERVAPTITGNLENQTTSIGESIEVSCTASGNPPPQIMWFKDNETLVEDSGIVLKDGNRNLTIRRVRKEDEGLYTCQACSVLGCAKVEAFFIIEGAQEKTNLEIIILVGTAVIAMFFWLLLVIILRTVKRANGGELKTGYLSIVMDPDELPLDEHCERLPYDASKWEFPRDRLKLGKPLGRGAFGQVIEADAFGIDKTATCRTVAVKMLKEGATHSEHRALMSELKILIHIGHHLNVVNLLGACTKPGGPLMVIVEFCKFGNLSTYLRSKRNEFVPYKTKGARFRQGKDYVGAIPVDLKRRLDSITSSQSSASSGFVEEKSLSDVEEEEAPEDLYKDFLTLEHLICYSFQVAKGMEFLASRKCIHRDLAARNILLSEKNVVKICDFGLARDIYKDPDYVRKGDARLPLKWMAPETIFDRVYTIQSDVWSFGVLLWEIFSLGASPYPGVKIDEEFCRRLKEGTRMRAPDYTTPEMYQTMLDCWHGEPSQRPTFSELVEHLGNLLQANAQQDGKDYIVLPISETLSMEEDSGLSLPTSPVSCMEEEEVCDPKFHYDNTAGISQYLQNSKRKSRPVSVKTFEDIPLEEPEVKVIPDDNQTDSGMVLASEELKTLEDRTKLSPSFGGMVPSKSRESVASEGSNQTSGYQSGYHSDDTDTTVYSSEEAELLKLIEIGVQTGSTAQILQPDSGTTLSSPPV
Keep it numeric: pIC50 is minus log10 of the concentration in mol/L.

Recorded results for 5 compounds are shown here.
[
  {
    "INPUT_SMILES": "COc1cc2c(Nc3c(F)cc(Cl)cc3F)ncnc2cc1OCC1CCNCC1",
    "pIC50": 7.40
  },
  {
    "INPUT_SMILES": "COc1cc2c(Nc3c(F)cc(Br)cc3F)ncnc2cc1OCC1CCNCC1",
    "pIC50": 7.82
  },
  {
    "INPUT_SMILES": "COc1cc2c(Nc3ccc(Br)cc3F)ncnc2cc1OC/C=C/CN1CCCC1.Cl",
    "pIC50": 8.10
  },
  {
    "INPUT_SMILES": "COc1cc2c(Nc3ccc(Br)cc3F)ncnc2cc1OCCC1CCNCC1",
    "pIC50": 7.40
  },
  {
    "INPUT_SMILES": "COc1cc2c(Nc3ccc(C)cc3F)ncnc2cc1OCC1CCNCC1",
    "pIC50": 7.52
  }
]

Reported pIC50 for "COc1cc2c(Nc3c(F)cc(Br)cc3F)ncnc2cc1OCC1CCN(C)CC1" was 8.00

Reported pIC50 for "COc1cc2c(Nc3cc(O)c(C)cc3F)ncnc2cc1OCC1CCN(C)CC1.Cl" was 8.15

Reported pIC50 for "COc1cc2c(Nc3ccc(Cl)cc3F)ncnc2cc1OCC1CCNCC1.Cl" was 7.30

Reported pIC50 for "COc1cc2c(Nc3ccc(Br)cc3F)ncnc2cc1OCCC1CCN(C)CC1" was 8.22

---

Measured pIC50 values are reported for all entries that follow.
ASSAYED_TARGET: Fibroblast growth factor receptor 1 (Homo sapiens)
Sequence (P11362 whole entry): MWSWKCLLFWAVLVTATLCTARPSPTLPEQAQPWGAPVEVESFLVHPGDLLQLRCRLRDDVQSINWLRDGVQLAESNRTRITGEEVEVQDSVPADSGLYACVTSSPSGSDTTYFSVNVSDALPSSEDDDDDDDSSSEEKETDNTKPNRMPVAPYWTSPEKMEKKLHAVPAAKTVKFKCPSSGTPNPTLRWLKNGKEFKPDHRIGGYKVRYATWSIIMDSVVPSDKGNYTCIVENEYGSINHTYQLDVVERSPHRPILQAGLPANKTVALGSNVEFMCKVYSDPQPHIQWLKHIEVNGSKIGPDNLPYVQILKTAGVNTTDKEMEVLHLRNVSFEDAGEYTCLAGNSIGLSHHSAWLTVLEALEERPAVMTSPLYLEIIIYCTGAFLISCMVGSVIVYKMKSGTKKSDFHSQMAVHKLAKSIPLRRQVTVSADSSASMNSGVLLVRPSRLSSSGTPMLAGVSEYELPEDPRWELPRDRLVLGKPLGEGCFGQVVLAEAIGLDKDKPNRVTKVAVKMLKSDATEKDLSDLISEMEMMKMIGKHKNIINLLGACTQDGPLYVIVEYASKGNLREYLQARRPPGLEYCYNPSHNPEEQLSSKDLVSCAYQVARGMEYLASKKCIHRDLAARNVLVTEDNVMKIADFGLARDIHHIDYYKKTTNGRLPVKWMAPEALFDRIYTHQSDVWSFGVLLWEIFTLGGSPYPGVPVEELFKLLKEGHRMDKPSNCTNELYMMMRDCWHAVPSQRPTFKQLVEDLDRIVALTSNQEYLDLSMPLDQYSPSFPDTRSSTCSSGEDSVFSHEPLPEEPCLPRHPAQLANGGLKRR
Keep it numeric: pIC50 is minus log10 of the concentration in mol/L.

[
  {
    "INPUT_SMILES": "COc1cc2c(Nc3c(F)cc(Br)cc3F)ncnc2cc1OCC1CCNCC1",
    "pIC50": 5.72
  },
  {
    "INPUT_SMILES": "COc1cc2c(Nc3ccc(Br)cc3F)ncnc2cc1OC[C@H]1CCCN(C)C1",
    "pIC50": 5.30
  },
  {
    "INPUT_SMILES": "COc1cc2c(Nc3cc(O)c(Cl)cc3F)ncnc2cc1OCC1CCN(C)CC1.Cl",
    "pIC50": 6.05
  },
  {
    "INPUT_SMILES": "COc1cc2c(Nc3ccc(C#N)cc3F)ncnc2cc1OC/C=C/CN1CCCC1",
    "pIC50": 4.72
  },
  {
    "INPUT_SMILES": "COc1cc2c(Nc3ccc(Br)cc3F)ncnc2cc1OC/C=C/CN1CCCC1.Cl",
    "pIC50": 5.68
  },
  {
    "INPUT_SMILES": "COc1cc2c(Nc3ccc(Cl)cc3F)ncnc2cc1OCCCN1CCCC1.Cl",
    "pIC50": 5.38
  },
  {
    "INPUT_SMILES": "COc1cc2c(Nc3ccc(Cl)cc3F)ncnc2cc1OCC1CCN(C)CC1.Cl",
    "pIC50": 5.37
  },
  {
    "INPUT_SMILES": "COc1cc2c(Nc3ccc(Cl)cc3F)ncnc2cc1OC[C@@H]1CCCN(C)C1",
    "pIC50": 5.74
  }
]

Reported pIC50 for "COc1cc2c(Nc3ccc(C)cc3F)ncnc2cc1OCC1CCN(C)CC1" was 4.87

Reported pIC50 for "COc1cc2c(Nc3ccc(Br)cc3F)ncnc2cc1OCCC1CCNCC1" was 5.57
